target: Shiga toxin 2 (Escherichia coli O157:H7) (UniProt P09385+P09386); assay: E. coli 0.157:H7 Shiga Toxin SOP - stx2 screening assay; format: functional; parameters: scale not given: direction of the effect not stated beside the values; settings: 30 µM
Here, each record is paired with measured Percent Effect data.

molecule | unit info | Percent Effect
O=C(C1CCOCC1)N1CC[C@H]2C[C@@H](c3ccncn3)O[C@@H]2C1 | % | -27.6
COCCN1CCCN(C(=O)NC(C)Cn2cccn2)CC1 (configuration not stated) | % | -9.78
Cc1nc(C2CCN(C(=O)c3cccnc3)CC2)c2sccn12 | % | -14.1
COc1cccc(-c2nc(C)c(C(=O)NC(CO)CCSC)s2)c1 (configuration not stated) | % | -34.8
CC(C)N(C)CCCNC(=O)c1cnc(-c2ccccc2)nc1 | % | -37.7
CC(NC(=O)N(C)Cc1ccc(Cl)s1)c1ccccn1 (configuration not stated) | % | -6.3
Cc1cnn(CC2CCCN2C(=O)CCc2c(C)noc2Cl)c1 (configuration not stated) | % | -4.86
CCc1nc2n(n1)CC(NCc1ccnc(-c3ccccc3)n1)CC2 (configuration not stated) | % | 5.5
CC(C)N1CCC(N2CCN(C3CCC3)CC2CCO)CC1 (configuration not stated) | % | -0.0599
O=C(c1ncccn1)N1C[C@H]2CCC[C@@]2(COCC2CCOCC2)C1 | % | -2.7
O=C(CCCNc1ncccn1)N1CCCC(n2cccn2)C1 (configuration not stated) | % | 1.16
Cc1cc(CN(C)C(=O)c2ccc(C(F)(F)F)nc2)no1 | % | -2.99

* * *

biological target: Shiga toxin 2 (Escherichia coli O157:H7) (UniProt P09385+P09386); assay: E. coli 0.157:H7 Shiga Toxin SOP - stx2 screening assay; assay type: functional; design: scale not given: direction of the effect not stated beside the values; details: 30 µM

compound | experimental system | unit info | Percent Effect
Cc1nn(C)c(Cl)c1C1CCCN1C(=O)c1nccnc1N (configuration not stated) | Shiga toxin 2 (Escherichia coli O157:H7) (UniProt P09385+P09386) | % | 22.4
COc1cc(C)nc(N2CCN(C(=O)CCc3cscn3)CC2)n1 | Shiga toxin 2 (Escherichia coli O157:H7) (UniProt P09385+P09386) | % | -10.1
C[C@H]1C[C@@H]2CCN(C(=O)c3cccn3C)C[C@H]2O1 | Shiga toxin 2 (Escherichia coli O157:H7) (UniProt P09385+P09386) | % | -0.37
Cc1ccc(-c2cc(N)c(=O)n(CC(=O)NCC3CC3)n2)s1 | Shiga toxin 2 (Escherichia coli O157:H7) (UniProt P09385+P09386) | % | 3.54
COc1ncc(C2(O)CCN(Cc3cccs3)CC2)c(OC)n1 | Shiga toxin 2 (Escherichia coli O157:H7) (UniProt P09385+P09386) | % | -24.4
O=C(NCCNC(=O)c1scnc1Cl)c1ccccc1 | Shiga toxin 2 (Escherichia coli O157:H7) (UniProt P09385+P09386) | % | -34.6
O=C(NCC1CC1)C1=NOC2(CCN(Cc3ccc4c(c3)OCO4)C2)C1 (configuration not stated) | Shiga toxin 2 (Escherichia coli O157:H7) (UniProt P09385+P09386) | % | -49.8
CC(Cn1cccn1)NCc1nc(-c2cccs2)no1 (configuration not stated) | Shiga toxin 2 (Escherichia coli O157:H7) (UniProt P09385+P09386) | % | 4.43
CC(C(=O)N1CCN(c2cnccn2)CC1)n1cncn1 (configuration not stated) | Shiga toxin 2 (Escherichia coli O157:H7) (UniProt P09385+P09386) | % | 2.13
COc1cccc(CCNC(=O)CN2CCCC2c2noc(C)n2)c1 (configuration not stated) | Shiga toxin 2 (Escherichia coli O157:H7) (UniProt P09385+P09386) | % | 22.4
CC(=O)N1[C@H](Cn2cncn2)C[C@@H]2CN(S(C)(=O)=O)CC[C@@H]21 | Shiga toxin 2 (Escherichia coli O157:H7) (UniProt P09385+P09386) | % | -36.4
O=C1CCC2(CCN(Cc3ccc(F)cc3)CC2)N1Cc1ccccc1 | Shiga toxin 2 (Escherichia coli O157:H7) (UniProt P09385+P09386) | % | 6.77
COCCc1noc(CN2CCOC(Cn3nc(C)cc3C)C2)n1 (configuration not stated) | Shiga toxin 2 (Escherichia coli O157:H7) (UniProt P09385+P09386) | % | -7.72
COCC1c2nnn(CC3CC3)c2CCN1C(=O)Cc1cccs1 (configuration not stated) | Shiga toxin 2 (Escherichia coli O157:H7) (UniProt P09385+P09386) | % | -2.97
c1csc(-c2nc(CN3CCOC(Cn4cncn4)C3)co2)c1 (configuration not stated) | Shiga toxin 2 (Escherichia coli O157:H7) (UniProt P09385+P09386) | % | 19.9
COCCN1CCCN(C(=O)NC(C)Cn2ccnc2)CC1 (configuration not stated) | Shiga toxin 2 (Escherichia coli O157:H7) (UniProt P09385+P09386) | % | -14.7
Cc1nc(N2CCCC2)nc2c1CCN(C(=O)CC1CC1)CC2 | Shiga toxin 2 (Escherichia coli O157:H7) (UniProt P09385+P09386) | % | -20.8
CC(C)CC(=O)N1CCCn2cnc(CN3CCCC3=O)c2C1 | Shiga toxin 2 (Escherichia coli O157:H7) (UniProt P09385+P09386) | % | -15.8
Cc1ncsc1C(=O)N(C)Cc1cccc(Cl)c1 | Shiga toxin 2 (Escherichia coli O157:H7) (UniProt P09385+P09386) | % | 17.9
Cc1ncccc1CNCC1CCN(CC(O)c2ccccc2)CC1 (configuration not stated) | Shiga toxin 2 (Escherichia coli O157:H7) (UniProt P09385+P09386) | % | -34.9
COCCC(=O)N1CCN(C)c2ncccc2C1 | Shiga toxin 2 (Escherichia coli O157:H7) (UniProt P09385+P09386) | % | -19.6
Cc1cc(C)c(CNC(=O)NCc2ccc3c(c2)CCC3)c(=O)[nH]1 | Shiga toxin 2 (Escherichia coli O157:H7) (UniProt P09385+P09386) | % | 32.4
COC(=O)Cn1c(=O)nc2n1C(=O)N(c1ccccc1)C2 | Shiga toxin 2 (Escherichia coli O157:H7) (UniProt P09385+P09386) | % | -22.6
COc1ccc(OCc2nc(C(=O)N3CC[C@H](O)[C@@H](O)C3)co2)cc1 | Shiga toxin 2 (Escherichia coli O157:H7) (UniProt P09385+P09386) | % | 8.98
COc1cccc(CN(C)S(=O)(=O)N2CCOCC2)c1 | Shiga toxin 2 (Escherichia coli O157:H7) (UniProt P09385+P09386) | % | 9.56
Cc1nc(CC(=O)N2CCCN(c3ccc(C#N)cc3)CC2)cs1 | Shiga toxin 2 (Escherichia coli O157:H7) (UniProt P09385+P09386) | % | -26.6
CN(C)C(=O)CN1CCCCC1c1nc(N)ncc1-c1cccc(F)c1 (configuration not stated) | Shiga toxin 2 (Escherichia coli O157:H7) (UniProt P09385+P09386) | % | -2.08
COc1ccc(C(CNC(=O)Nc2cn[nH]c2)N2CCOCC2)cc1 (configuration not stated) | Shiga toxin 2 (Escherichia coli O157:H7) (UniProt P09385+P09386) | % | 23.8
CCC(O)CN1CCN(C(=O)c2cccn2Cc2ccccc2)CC1 (configuration not stated) | Shiga toxin 2 (Escherichia coli O157:H7) (UniProt P09385+P09386) | % | 16.8
O=C1CSC(c2ccsc2)c2c(n(C3CCOCC3)[nH]c2=O)N1 (configuration not stated) | Shiga toxin 2 (Escherichia coli O157:H7) (UniProt P09385+P09386) | % | -12.8
CCc1nc(C2CCCN2C(=O)CCc2ccc3c(c2)OCO3)no1 (configuration not stated) | Shiga toxin 2 (Escherichia coli O157:H7) (UniProt P09385+P09386) | % | 6.69
Cc1nccn1C1CCCN(C(=O)c2ccc3c(c2)nnn3C)C1 (configuration not stated) | Shiga toxin 2 (Escherichia coli O157:H7) (UniProt P09385+P09386) | % | 16.2
CN(Cc1ncc[nH]1)S(=O)(=O)c1cccc(C(=O)N2CCOCC2)c1 | Shiga toxin 2 (Escherichia coli O157:H7) (UniProt P09385+P09386) | % | -12.2
CN(C)C(=O)COCc1cncc2c1CCN(Cc1cnn(C)c1)C2 | Shiga toxin 2 (Escherichia coli O157:H7) (UniProt P09385+P09386) | % | -43
CNC(=O)N1CC[C@H]2N(C)CC[C@@]2(C(=O)Nc2ccccc2)CC1 | Shiga toxin 2 (Escherichia coli O157:H7) (UniProt P09385+P09386) | % | 15.9
Cc1cc(C(=O)N2C[C@@H]3COC[C@]3(c3nnc(C4CC4)o3)C2)on1 | Shiga toxin 2 (Escherichia coli O157:H7) (UniProt P09385+P09386) | % | -27.3
Cc1ccc(CN(C)C(=O)CN2CC(n3cccn3)C2)o1 | Shiga toxin 2 (Escherichia coli O157:H7) (UniProt P09385+P09386) | % | -26.8
CCN(CCNC(=O)c1ccccc1Br)C1CC1 | Shiga toxin 2 (Escherichia coli O157:H7) (UniProt P09385+P09386) | % | 9.65
CCN(CCNC(=O)c1ccccc1OCCOC)C1CC1 | Shiga toxin 2 (Escherichia coli O157:H7) (UniProt P09385+P09386) | % | -72
Cc1[nH]ncc1C(=O)N1CCCC(c2cc(C(F)(F)F)[nH]n2)C1 (configuration not stated) | Shiga toxin 2 (Escherichia coli O157:H7) (UniProt P09385+P09386) | % | 24.8
COc1ccc(C(=O)N2C[C@@H](C(=O)O)[C@H](c3ccccc3C)C2)c(O)c1 | Shiga toxin 2 (Escherichia coli O157:H7) (UniProt P09385+P09386) | % | 0.95
Cc1ccc(-c2nc(CN3CCc4nn(C)c(=O)cc4C3)co2)cc1 | Shiga toxin 2 (Escherichia coli O157:H7) (UniProt P09385+P09386) | % | -3.75
Cc1noc(C)c1CCC(=O)N1CCN(CCn2cccn2)CC1 | Shiga toxin 2 (Escherichia coli O157:H7) (UniProt P09385+P09386) | % | -11.4
CCc1noc(C(C)N2CCN(c3ccc(C#N)cn3)CC2)n1 (configuration not stated) | Shiga toxin 2 (Escherichia coli O157:H7) (UniProt P09385+P09386) | % | -26.5
Cc1ccc(Cl)cc1N1CCC(CNC(=O)CCn2ccnn2)C1 (configuration not stated) | Shiga toxin 2 (Escherichia coli O157:H7) (UniProt P09385+P09386) | % | -49.4
Cc1nc(CN2CCc3cncnc3C2)oc1C | Shiga toxin 2 (Escherichia coli O157:H7) (UniProt P09385+P09386) | % | -14.4
c1ccc(-c2cnc(CN3CCCC3Cn3cncn3)o2)cc1 (configuration not stated) | Shiga toxin 2 (Escherichia coli O157:H7) (UniProt P09385+P09386) | % | 8.27
